Assignment: determine reported solubility for the given compounds.
# Assay: Solubility in organic solvents
# Type: physicochemical
# Assay Conditions: n-octanol, organic solvent or mixture; read-out: solubility in n-octanol

I am curious: what solubility value has been reported for CC(=O)OCCNC(=O)c1ccccc1 [Example 3, N-(2-Acetoxyethyl)-Benzoylamide] ?
> 10000 µg/mL

Okay, and CCCCCCCCCCCCCCCC(=O)NCCOC(C)=O [Example 2, N-(2-Acetoxyethyl)-Palmitoylamide] ?
> 5000 µg/mL

----------
# Assay: Solubility in water
# Type: physicochemical
# Assay Conditions: aqueous buffer; 50 mM phosphate buffer, pH 7.4, NaCl 0.9%; read-out: solubility in water: 50 mM phosphate buffer
Exercise: state measured solubility for each of the molecules provided.

Item under review: O=C(O)CCC(=O)OCCNC(=O)C=CCCCCCCCCC(=O)NCCOC(=O)CCC(=O)O . Reported solubility?
> 1000 µg/mL

Entry CCCCCCCCCCCCCCCC(=O)NCCOP(=O)(O)O [Example 5, N-Palmitoylethanolamide Phosphate] please
> 1000 µg/mL

----------
# Assay: Solubility in organic solvents
# Type: physicochemical
# Assay Conditions: organic solvent or mixture; DMSO; product in acid form; read-out: solubility in DMSO (product in acid form)
Where a name gives a salt, the structure may show the parent alone.
Reported Metric: solubility

solubility lookup needed for O=C(/C=C/CCCCCCCCC(=O)NCCOP(=O)(O)O)NCCOP(=O)(O)O [Example 6, Diphosphate Disodium Salt] , thanks.
> 10000 µg/mL
